Below, each entry is listed alongside its reported IC50.
TARGET ENTITY: human-KAT6A (MYST domain 507-778 aa) (Homo sapiens (Human))
Sequence (Q92794 507-778): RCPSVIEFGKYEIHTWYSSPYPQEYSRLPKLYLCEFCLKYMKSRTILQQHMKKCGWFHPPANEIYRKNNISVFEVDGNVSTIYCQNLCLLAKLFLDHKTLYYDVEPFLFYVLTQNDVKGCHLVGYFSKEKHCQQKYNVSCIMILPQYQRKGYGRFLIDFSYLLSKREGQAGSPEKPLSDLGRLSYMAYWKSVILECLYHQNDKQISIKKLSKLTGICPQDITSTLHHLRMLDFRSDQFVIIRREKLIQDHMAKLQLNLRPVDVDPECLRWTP
PROCEDURE SUMMARY: KAT6A biochemical assay (TR-FRET)
STUDY CONDITIONS: TR-FRET; histone H4 peptide 200 nM, acetyl-CoA 600 nM; read-out: KAT6A IC50

COMPOUND: COc1cccc(F)c1[S@@](=N)(=O)NC(=O)c1ccc(Cn2cccn2)c(OC)n1 [Compound 305b]
IC50: 0.318 µM

COMPOUND: CCOc1cccc(OC)c1[S@@](=N)(=O)NC(=O)c1ccc(Cn2cccn2)c(OC)n1 [Compound 294b]
IC50: 0.022 µM

COMPOUND: CCOc1cccc(OC)c1S(=O)(=O)NC(=O)c1ccc(Cn2cccn2)c(OC)n1 [Compound 218]
IC50: 0.008 µM

COMPOUND: COc1cc(OC)c(S(=N)(=O)NC(=O)c2ccc(Cn3cccn3)c(OC)n2)c(OC)c1 (stereo not shown) [Compound 263]
IC50: 0.036 µM

COMPOUND: COc1cccc(OC2CC2)c1S(=O)(=O)NC(=O)c1ccc(Cn2cccn2)c(OC)n1 [Compound 279]
IC50: 0.014 µM

COMPOUND: COc1ccc(Cl)c(OC)c1[S@](=N)(=O)NC(=O)c1ccc(Cn2cccn2)c(OC)n1 [Compound 293a]
IC50: 0.374 µM

COMPOUND: COc1ccc2c(c1S(=O)(=O)NC(=O)c1ccc(Cn3cccn3)c(OC)n1)OCC2 [Compound 211]
IC50: 0.008 µM

COMPOUND: COc1ccc(S(=O)(=O)NC(=O)c2ccc(Cn3cccn3)c(OC)c2)c(OC)c1 [Compound 42]
IC50: 0.008 µM

COMPOUND: COc1cc(C#Cc2cccnc2)cc(OC)c1S(=O)(=O)NC(=O)c1ccc(Cn2cccn2)c(OC)n1 [Compound 269]
IC50: 0.012 µM

COMPOUND: COc1ccc(S(=O)(=O)NC(=O)c2ccc(Cn3cccn3)c(OC)n2)c(OC)c1 [Compound 226]
IC50: 0.027 µM

COMPOUND: COc1cc(C(=O)NS(=O)(=O)c2c(OC)ccc(Cl)c2OC)ccc1Cn1cccn1 [Compound 46]
IC50: 0.012 µM

COMPOUND: COc1ccccc1S(=N)(=O)NC(=O)c1ccc(Cn2cccn2)c(OC)n1 (stereo not shown) [Compound 232]
IC50: 0.095 µM

COMPOUND: COc1ccc(C(C)(C)C)cc1S(=O)(=O)NC(=O)c1ccc(Cn2cccn2)cn1 [Compound 201]
IC50: 0.731 µM

COMPOUND: CCc1ccc(OC)c(S(=O)(=O)NC(=O)c2ccc(Cn3cccn3)cc2OC)c1 [Compound 3]
IC50: 0.137 µM

COMPOUND: COc1cc(C(=O)NS(=O)(=O)c2cc(-n3cccn3)ccc2OC)ccc1Cn1cccn1 [Compound 19]
IC50: 0.042 µM

COMPOUND: COc1ccc(S(=O)(=O)NC(=O)c2ccc(Cn3cccn3)c(OC)c2)cc1Cl [Compound 311]
IC50: 0.135 µM

Hello, the source for this data is patent US20250136553A1, in case you need it.
